- tested-target: human Gastric Inhibitory Peptide Receptor (human) (UniProt P48546)
- Sequence (P48546 22-466 limits assumed): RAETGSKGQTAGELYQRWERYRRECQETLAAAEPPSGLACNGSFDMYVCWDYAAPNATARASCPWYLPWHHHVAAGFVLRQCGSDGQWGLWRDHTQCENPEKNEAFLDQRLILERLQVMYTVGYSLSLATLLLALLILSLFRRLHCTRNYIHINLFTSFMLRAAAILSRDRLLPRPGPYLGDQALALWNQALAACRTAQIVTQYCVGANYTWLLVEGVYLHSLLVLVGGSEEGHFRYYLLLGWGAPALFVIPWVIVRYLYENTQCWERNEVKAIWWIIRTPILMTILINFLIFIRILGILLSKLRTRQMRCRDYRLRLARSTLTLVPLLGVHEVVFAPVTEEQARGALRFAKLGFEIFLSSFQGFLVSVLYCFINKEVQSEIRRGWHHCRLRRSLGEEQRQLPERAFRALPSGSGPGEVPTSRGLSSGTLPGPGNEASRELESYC
- experiment: FACS competition with GIP-057 on CHO-K1-hGIPR cells; pIC50 category A: >8.0
*1 amine or outer side, *2 acyl side, *3 side chain or, on linkers, in order; H or OH if unused. Bridges are numbered along the chain shown (N, C = ends). [ ]: non-standard residue; d: D form. dE(AGLU) = D-glutamic acid bearing 1-amino-1-deoxy-D-glucitol; Pro(trans-4-NH2) = O=C([C@@H]1C[C@@H](N[*:3])CN1[*:1])[*:2]; N4Ac = bis-(2-amino-ethylamine)-methyl-propionic acid; Trp(5-Cl) = N[C@@H](Cc1c[nH]c2ccc(Cl)cc12)C(=O)O; Pyridine(2,6-diCH2) = c1cc(C[*:1])nc(C[*:2])c1; APAc = 4-amino-1-carboxymethylpiperidine; Glutaryl = O=C(CCCC(=O)[*:2])[*:1]; AGLU = 1-amino-1-deoxy-D-glucitol; Hyp = O=C(O)[C@@H]1C[C@@H](O)CN1; Cysteamide = C(CS[*:3])N[*:1]; ZnDOTA = DOTA zinc complex; Api = NC1(C(=O)O)CCNCC1
quantity-name: pIC50

binder	pIC50
{AGLU-Glutaryl}-DW[Trp(5-Cl)][Hyp]E[dL]C[Api](ZnDOTA)LI[Cysteamide] (linker 7-11 via Pyridine(2,6-diCH2)) [AGLU-Glutar-Asp-Trp-5Clw-Hyp-Glu-leu-[Cys(2Lut)-Apc(ZnDOTA)-Leu-Ile-AET]]	> 8 pic50

Shifting focus to the binder that follows.
Can you share its pIC50? I mean this binder: {AGLU-Glutaryl}-DW[Trp(5-Cl)][Pro(trans-4-NH2)]E[dL]C[Api](N4Ac)LIC-{APAc-dE(AGLU)-NH2} (linker 7-11 via Pyridine(2,6-diCH2)) [AGLU-Glutar-Asp-Trp-5Clw-Tap-Glu-leu-[Cys(2Lut)-Apc(N4Ac)-Leu-Ile-Cys]-APAc-glu(AGLU)-NH2]
> 8 pic50
